Give SI (Selectivity Index) for every item shown.
- Tested on: T. b. rhodesiense STIB 900 bloodstream forms
- ASSAY_NAME: In vitro antitrypanosomal Alamar Blue assay
- Format: cell-based, Trypanosoma brucei rhodesiense
- CONDITION_CONTEXT: IC50 against L6 cells divided by IC50 against STIB 900 strain

Problem: Quote T. b. rhodesiense STIB 900 bloodstream forms SI (Selectivity Index) for entry C=C1C(=O)O[C@@H]2/C=C(\CO)CC/C=C(\C)C[C@H](OC(=O)C(=C)[C@H](O)CO)[C@@H]12 .
Result: 10

Problem: Quote T. b. rhodesiense STIB 900 bloodstream forms SI (Selectivity Index) for entry CC1C(=O)CCC2(C)CCC3C(CN4CCOCC4)C(=O)OC3C12 (centres unmarked) .
Result: 5.6

Problem: Quote T. b. rhodesiense STIB 900 bloodstream forms SI (Selectivity Index) for entry CC12CCC3C(CNCCc4ccc(O)cc4)C(=O)OC3C13C=CC(=O)C23C (centres unmarked) .
Result: 3.2

Problem: Quote T. b. rhodesiense STIB 900 bloodstream forms SI (Selectivity Index) for entry CC1C(=O)OC2C1CCC1(C)C=CC(=O)C(C)C21 (centres unmarked) .
Result: 2.6

Problem: Quote T. b. rhodesiense STIB 900 bloodstream forms SI (Selectivity Index) for entry CC(=O)OC1(C)CCC2C(C)C(=O)OC2C2=C(C)C(=O)CC21 (centres unmarked) .
Result: >6.4

Problem: Quote T. b. rhodesiense STIB 900 bloodstream forms SI (Selectivity Index) for entry CC12CCC3C(CN4CCOCC4)C(=O)OC3C13C=CC(=O)C23C (centres unmarked) .
Result: 3.8

Problem: Quote T. b. rhodesiense STIB 900 bloodstream forms SI (Selectivity Index) for entry C=C1CC(O)C2C(CN(C)C)C(=O)OC2C2C(=C)C(O)CC12 (centres unmarked) .
Result: 2.5

Problem: Quote T. b. rhodesiense STIB 900 bloodstream forms SI (Selectivity Index) for entry CC(=O)OC1(C)CCC2C(CN3CCOCC3)C(=O)OC2C2=C(C)C(=O)CC21 (centres unmarked) .
Result: 10.3

Problem: Quote T. b. rhodesiense STIB 900 bloodstream forms SI (Selectivity Index) for entry C=C1C(=O)OC2C3=C(C)C(=O)CC3C(C)(OC(C)=O)CCC12 (centres unmarked) .
Result: 7.6

Problem: Quote T. b. rhodesiense STIB 900 bloodstream forms SI (Selectivity Index) for entry CC1=C2C3OC(=O)C(CNCc4ccc(Cl)cc4)C3CCC2(C)C=CC1=O (centres unmarked) .
Result: 3.4

Problem: Quote T. b. rhodesiense STIB 900 bloodstream forms SI (Selectivity Index) for entry CC(=O)OC1(C)CCC2C(CNCCc3ccc(O)cc3)C(=O)OC2C2=C(C)C(=O)CC21 (centres unmarked) .
Result: 3.3

Problem: Quote T. b. rhodesiense STIB 900 bloodstream forms SI (Selectivity Index) for entry CCN(CC)CC1C(=O)OC2C3=C(C)C(=O)CC3C(C)(O)CCC12 (centres unmarked) .
Result: 2.2

Problem: Quote T. b. rhodesiense STIB 900 bloodstream forms SI (Selectivity Index) for entry CC1=C2C3OC(=O)C(CNCCc4ccc(O)cc4)C3CCC2(C)C=CC1=O (centres unmarked) .
Result: 6.5

Problem: Quote T. b. rhodesiense STIB 900 bloodstream forms SI (Selectivity Index) for entry CC(=O)OC1(C)CCC2C(CNCCc3ccc(Cl)cc3)C(=O)OC2C2=C(C)C(=O)CC21 (centres unmarked) .
Result: 4.2

Problem: Quote T. b. rhodesiense STIB 900 bloodstream forms SI (Selectivity Index) for entry CC1C(=O)CCC2(C)CCC3C(CNCCc4ccc(O)cc4)C(=O)OC3C12 (centres unmarked) .
Result: 4

Problem: Quote T. b. rhodesiense STIB 900 bloodstream forms SI (Selectivity Index) for entry CC1C(=O)C=CC2(C)CCC3C(CNCCc4ccc(O)cc4)C(=O)OC3C12 (centres unmarked) .
Result: >35.0

Problem: Quote T. b. rhodesiense STIB 900 bloodstream forms SI (Selectivity Index) for entry Nc1nc(N)nc(Nc2ccc([As]3SCC(CO)S3)cc2)n1 (centres unmarked) [Melarsoprol, reference compound] .
Result: 2170

----------
- System: rat skeletal myoblasts (L6-cells)
- ASSAY_NAME: cells
- Type: cell-based
- CONDITION_CONTEXT: Rattus norvegicus, L6; cytotoxicity; 70 h incubation; average of three independent assays; read-out: L6 cells IC50
READOUT_KIND: pIC50
On this scale, pIC50 is minus log10 of a concentration expressed in M (mol/L).

Problem: Answer with the recorded pIC50 of CC1C(=O)OC2C1CCC1(C)C=CC(=O)C(C)C21 (stereo not drawn) only.
Result: 4.47

Problem: Answer with the recorded pIC50 of C=C(CO)C(=O)OC1CC(=C)C2CC(O)C(=C)C2C2OC(=O)C(CN(C)C)C12 (stereo not drawn) only.
Result: 5.28

----------
Give SI (Selectivity Index) for every item shown.
- Tested on: T. b. rhodesiense STIB 900 bloodstream forms
- ASSAY_NAME: In vitro antitrypanosomal Alamar Blue assay
- Type: cell-based, Trypanosoma brucei rhodesiense
- CONDITION_CONTEXT: IC50 against L6 cells divided by IC50 against STIB 900 strain

Problem: Quote T. b. rhodesiense STIB 900 bloodstream forms SI (Selectivity Index) for entry CC12CCC3C(CNCCc4ccc(Cl)cc4)C(=O)OC3C13C=CC(=O)C23C (stereo not shown) .
Result: 2.7

Problem: Quote T. b. rhodesiense STIB 900 bloodstream forms SI (Selectivity Index) for entry CC1=C2C3OC(=O)C(CN4CCN(c5ccccc5Cl)CC4)C3CCC2(C)C=CC1=O (stereo not shown) .
Result: 3.1

Problem: Quote T. b. rhodesiense STIB 900 bloodstream forms SI (Selectivity Index) for entry CC1=C2[C@H]3OC(=O)[C@@H](C)[C@@H]3CC[C@@]2(C)C=CC1=O .
Result: >8.8

Problem: Quote T. b. rhodesiense STIB 900 bloodstream forms SI (Selectivity Index) for entry C=C[C@@]12COC(=O)C(=C)[C@@H]1[C@H]1OC(=O)C(=C)[C@@H]1[C@@H](OC(=O)C(=C)CO)C2 .
Result: 3

Problem: Quote T. b. rhodesiense STIB 900 bloodstream forms SI (Selectivity Index) for entry C=C1C(=O)O[C@@H]2[C@H]1CC[C@H](C)[C@]1(CCC(=O)O1)[C@@]2(C)O .
Result: 1.2

Problem: Quote T. b. rhodesiense STIB 900 bloodstream forms SI (Selectivity Index) for entry CC1=C2C3OC(=O)C(C)C3CCC(C)(O)C2CC1O (stereo not shown) [Compound 15, 3-Hydroxyisophotosantonin] .
Result: 6.4

Problem: Quote T. b. rhodesiense STIB 900 bloodstream forms SI (Selectivity Index) for entry CC1C(=O)C=CC2(C)CCC3C(CN4CCOCC4)C(=O)OC3C12 (stereo not shown) .
Result: 13.3

----------
Give IC50 for every item shown.
- Tested on: rat skeletal myoblasts (L6-cells)
- ASSAY_NAME: cells
- Format: cell-based
- CONDITION_CONTEXT: Rattus norvegicus, L6, 70 h, read-out: L6 cells IC50
Kindly report the value followed by its unit.

Problem: Quote rat skeletal myoblasts (L6-cells) IC50 for entry Nc1nc(N)nc(Nc2ccc([As]3SCC(CO)S3)cc2)n1 (stereo not drawn) [Melarsoprol, reference compound] .
Result: 21.7 µM

Problem: Quote rat skeletal myoblasts (L6-cells) IC50 for entry C=C1C(=O)O[C@@H]2/C=C(/C)[C@@H](O)C/C=C(\C)C[C@H](OC(=O)/C(C)=C\C)[C@@H]12 .
Result: 10.5 µM

Problem: Quote rat skeletal myoblasts (L6-cells) IC50 for entry COc1cc([C@@H]2c3cc4c(cc3[C@H](O)[C@H]3COC(=O)[C@H]23)OCO4)cc(OC)c1OC [Podophyllotoxin, reference compound] .
Result: 0.02 µM
